# test.system: T1, Aβ1-42 fibrils (human)
# T1 construct: Aβ1-42 polypeptide, HFIP-treated, incubated in 10 mM HCl at 37 C for 24 h, pelleted fibrillar fraction, sonicated; Multimeric fibril; also called fibril Aβ42; fibrillar Aβ42
# T1 sequence (peptide, as listed by the source): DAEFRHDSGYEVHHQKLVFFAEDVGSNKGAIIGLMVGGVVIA
# protocol.description: SPR (BIAcore T200); Aβ1-42 fibrils immobilized, Fab as analyte; global 1:1 fit
measured.metric: kon (M⁻¹ s⁻¹)

INSERT INTO assay_data (binder, measured_metric, test_result) VALUES
  ('h2726 Fab (Fab, V domains shown) VH: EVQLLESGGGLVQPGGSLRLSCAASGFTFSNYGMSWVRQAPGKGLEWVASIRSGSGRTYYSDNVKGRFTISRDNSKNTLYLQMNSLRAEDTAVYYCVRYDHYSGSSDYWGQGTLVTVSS VL: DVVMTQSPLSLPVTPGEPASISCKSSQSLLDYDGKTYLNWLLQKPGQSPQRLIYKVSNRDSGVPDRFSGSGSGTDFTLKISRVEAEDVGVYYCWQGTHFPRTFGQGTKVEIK', 'kon', 129000),
  ('h2831 Fab (Fab, V domains shown) VH: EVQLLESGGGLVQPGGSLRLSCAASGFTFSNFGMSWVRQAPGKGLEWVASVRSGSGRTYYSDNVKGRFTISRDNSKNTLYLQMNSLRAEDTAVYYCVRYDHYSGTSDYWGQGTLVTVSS VL: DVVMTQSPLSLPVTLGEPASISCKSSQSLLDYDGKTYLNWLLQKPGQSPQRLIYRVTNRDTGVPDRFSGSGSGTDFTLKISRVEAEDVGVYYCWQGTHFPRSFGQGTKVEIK', 'kon', 108000),
  ('h2931 Fab (Fab, V domains shown) VH: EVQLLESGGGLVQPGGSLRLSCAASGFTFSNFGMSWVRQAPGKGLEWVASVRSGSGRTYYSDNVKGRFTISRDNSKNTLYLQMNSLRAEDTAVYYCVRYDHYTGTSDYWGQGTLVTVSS VL: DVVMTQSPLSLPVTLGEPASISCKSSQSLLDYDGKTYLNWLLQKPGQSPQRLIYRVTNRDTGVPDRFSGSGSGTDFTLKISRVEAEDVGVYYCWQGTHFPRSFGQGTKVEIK', 'kon', 123000),
  ('h2731 Fab (Fab, V domains shown) VH: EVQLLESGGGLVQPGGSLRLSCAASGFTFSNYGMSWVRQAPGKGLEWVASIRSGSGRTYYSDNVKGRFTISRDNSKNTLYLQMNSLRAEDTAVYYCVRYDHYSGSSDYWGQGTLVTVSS VL: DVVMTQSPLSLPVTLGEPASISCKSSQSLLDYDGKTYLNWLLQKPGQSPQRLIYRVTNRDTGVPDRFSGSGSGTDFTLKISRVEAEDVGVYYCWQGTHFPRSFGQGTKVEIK', 'kon', 129000);
